A collection of molecules and their measured log10 IC50
System: Endogenous Huntingtin Protein
Experiment notes: Endogenous Huntingtin Protein Assay (ELISA-based MSD electrochemiluminescence)
Assay type: cell-based
Cond: Table 2; MSD plates coated with MW1 (expanded polyglutamine) or MAB2166 capture antibody; "inactive" = result above the detection limit of the assay
// stored as log10 of IC50 expressed in nM

Molecule	log10 IC50
Oc1cc(-c2cn[nH]c2)ccc1-c1cnc(N2CCNC(C3CC3)C2)nn1 (centres unmarked)	0.78
Cc1cn2nc(-c3ccc(-c4cnc(N5CCN(C)CC5)nn4)c(O)c3)cc(C)c2n1	1.16
Cn1cc(-c2ccc(-c3cnc(N4CCN[C@@H](C(C)(C)C)C4)nn3)c(O)c2)cn1	1.32

Exercise: Under Endogenous Huntingtin Protein: log10 IC50 value of Oc1cc(-c2c[nH]nc2Cl)ccc1-c1cnc(N2CCN[C@@H](C3CC3)C2)nn1 ?
Key: 0.62

Exercise: Under Endogenous Huntingtin Protein: log10 IC50 value of Cc1cn2cc(-c3cnc(-c4cnc(N5CCN(C)CC5)nn4)c(O)c3)cc(C)c2n1 ?
Key: 2.00

Exercise: Under Endogenous Huntingtin Protein: log10 IC50 value of CN1CCN(c2ncc(-c3ccc(-c4cn[nH]c4)cc3O)nn2)CC1C1CC1 (centres unmarked) ?
Key: 1.40

Exercise: Under Endogenous Huntingtin Protein: log10 IC50 value of Cn1nnc2cnc(-c3ccc(-c4cnc(N5CCN[C@@H](C6CC6)C5)nn4)c(O)c3)cc21 ?
Key: 2.78

Exercise: Under Endogenous Huntingtin Protein: log10 IC50 value of CC(C)[C@H]1CN(c2ncc(-c3ccc(-c4cnc5nsnc5c4)cc3O)nn2)CCN1 ?
Key: 2.10
